Target: human NAT1 (Homo sapiens, UniProt P18440)
Construct: purchased BD Gentest (Bedford, Mass.); host or cells: insect cells
Sequence (P18440 whole entry): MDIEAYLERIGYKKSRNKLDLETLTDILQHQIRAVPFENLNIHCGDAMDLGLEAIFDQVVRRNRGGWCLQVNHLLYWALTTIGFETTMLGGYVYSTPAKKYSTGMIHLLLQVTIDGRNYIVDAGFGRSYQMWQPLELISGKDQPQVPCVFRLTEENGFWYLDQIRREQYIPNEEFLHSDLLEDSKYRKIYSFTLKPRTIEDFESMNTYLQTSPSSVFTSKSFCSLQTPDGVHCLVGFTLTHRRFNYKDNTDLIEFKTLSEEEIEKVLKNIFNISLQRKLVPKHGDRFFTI
Assay: N-acetylation by recombinant human NAT1
Assay type: in vitro ADME
Settings: compound 100 μM, 37° C., 120 min, N-acyl product by HPLC
MEASUREMENT_KIND: % Conversion NAT1 (%)

// solved cases for % Conversion NAT1 follow
CCC(C)(C)Cc1sc(N)nc1-c1ccc(P(=O)(O)O)o1 [Compound 3.3, reference compound]; 4.6
CCC(C)(C)C(=O)c1sc(N)nc1-c1ccc(P(=O)(O)O)o1; 0

[P] Nc1nc(-c2ccc(P(=O)(O)O)o2)c(CC2CCCC2)s1 [Compound 3.2, reference compound]
[Q] CC(C)c1sc(N)nc1-c1ccc(P(=O)(O)O)o1 [Compound 3.4, reference compound]
Data request: Form field 'greater % Conversion NAT1' accepts P or Q ; which applies? Answer by quoting the chosen item's label.
Data returned: P

* * *

Target: human liver FBPase (Homo sapiens, UniProt P09467)
Sequence (P09467 2-338 limits assumed): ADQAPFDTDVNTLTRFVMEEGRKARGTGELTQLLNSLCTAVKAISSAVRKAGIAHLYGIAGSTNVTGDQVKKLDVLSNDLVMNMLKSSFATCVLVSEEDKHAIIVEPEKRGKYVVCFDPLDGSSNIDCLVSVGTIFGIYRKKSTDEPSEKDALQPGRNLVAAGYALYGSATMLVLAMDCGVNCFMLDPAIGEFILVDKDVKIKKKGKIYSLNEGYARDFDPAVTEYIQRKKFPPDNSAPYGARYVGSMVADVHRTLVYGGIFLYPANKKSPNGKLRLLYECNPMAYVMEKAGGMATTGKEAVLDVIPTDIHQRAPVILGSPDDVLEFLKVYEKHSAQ
Test: Inhibition of human liver FBPase
Conditions: purified recombinant human liver FBPase, 0.150 mM fructose 1,6-bisphosphate, 37° C.; read-out: IC50 (hlFBPase)
Description: E. coli strain BL21 transformed with a human liver FBPase-encoding plasmid was obtained from Dr. M. R. El-Maghrabi at the State University of New York at Stony Brook. […] Reactions were started by the addition of 0.002 units of pure hlFBPase, and were monitored for 7 min. at 590 nm in a Molecular Devices Plate Reader (37° C.).
pIC50: −log10 of the molar value.
MEASUREMENT_KIND: pIC50

Known pIC50 results, listed for orientation:
CCC(C)(C)C(=O)c1sc(N)nc1-c1ccc(P(=O)(O)O)o1; 7.60
Nc1nc(-c2ccc(P(=O)(O)O)o2)c(C(=O)c2ccc(C(F)(F)F)cc2)s1; 7.00
CC(C)(C)C(=O)c1sc(N)nc1-c1ccc(P(=O)(O)O)o1; 7.51
COc1ccccc1C(=O)c1sc(N)nc1-c1ccc(P(=O)(O)O)o1; 6.93
Nc1nc(-c2ccc(P(=O)(O)O)o2)c(C(=O)c2ccc(N3CCCCC3)cc2)s1; 7.14
Nc1ncnc2c1ncn2[C@@H]1O[C@H](COP(=O)(O)O)[C@@H](O)[C@H]1O [AMP, reference compound]; 6.00
CCC(C)C(=O)c1sc(N)nc1-c1ccc(P(=O)(O)O)o1 (stereo not drawn); 7.96
CN(C)c1ccc(C(=O)c2sc(N)nc2-c2ccc(P(=O)(O)O)o2)cc1; 6.98
Nc1nc(-c2ccc(P(=O)(O)O)o2)c(C(=O)c2ccc(F)cc2)s1; 7.48
Nc1nc(-c2ccc(P(=O)(O)O)o2)c(C(=O)C2CCCC2)s1; 7.85

[a] Nc1nc(-c2ccc(P(=O)(O)O)o2)c(C(=O)c2ccc(N3CCOCC3)c(Cl)c2)s1
[b] Nc1nc(-c2ccc(P(=O)(O)O)o2)c(C(=O)c2cccs2)s1
[c] CCC(CC)C(=O)c1sc(N)nc1-c1ccc(P(=O)(O)O)o1
[d] Nc1nc(-c2ccc(P(=O)(O)O)o2)c(C(=O)C2CCC2)s1
[e] CC(=O)Nc1nc(-c2ccc(P(=O)(O)O)o2)c(C(=O)C(C)(C)C)s1 [N-acetyl-1.1, reference compound]
Data request: Order by pIC50, ascending. Hello, could you send the labels back in the order asked? Thank you.
Data returned: e, a, b, d, c

* * *

Biological target: human liver FBPase (Homo sapiens, UniProt P09467)
Experiment: Inhibition of human liver FBPase
Conditions: purified recombinant human liver FBPase, 0.150 mM fructose 1,6-bisphosphate, 37° C.; read-out: IC50 (hlFBPase)
pIC50: −log10 of the molar value.
MEASUREMENT_KIND: pIC50

Nc1nc(-c2ccc(P(=O)(O)O)o2)c(C(=O)c2ccc3ccccc3c2)s1; 7.22
Nc1nc(-c2ccc(P(=O)(O)O)o2)c(C(=O)c2ccc3c(c2)OCO3)s1; 7.28
Cc1ccc(C(=O)c2sc(N)nc2-c2ccc(P(=O)(O)O)o2)cc1; 7.32
Nc1nc(-c2ccc(P(=O)(O)O)o2)c(C(=O)c2cccc(Cl)c2)s1; 7.14

* * *

Biological target: rat liver FBPase (Rattus norvegicus, UniProt P19112)
Sequence (P19112 2-363 limits assumed): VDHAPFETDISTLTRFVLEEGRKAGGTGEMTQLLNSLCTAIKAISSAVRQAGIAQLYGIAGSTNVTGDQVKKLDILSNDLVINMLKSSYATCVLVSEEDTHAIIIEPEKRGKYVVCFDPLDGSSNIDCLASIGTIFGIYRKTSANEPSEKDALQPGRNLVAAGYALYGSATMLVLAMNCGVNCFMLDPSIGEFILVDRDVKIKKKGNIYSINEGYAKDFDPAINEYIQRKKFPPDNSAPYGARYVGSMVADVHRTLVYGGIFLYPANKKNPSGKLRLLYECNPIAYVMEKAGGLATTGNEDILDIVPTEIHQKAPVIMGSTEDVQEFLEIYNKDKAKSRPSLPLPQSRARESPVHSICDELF
pIC50: −log10 of the molar value.
MEASUREMENT_KIND: pIC50

CC(C)(C)C(=O)c1sc(N)nc1-c1ccc(P(=O)(O)O)o1 [Compound 1.1]; 6.72
CC(C)(C)Cc1sc(N)nc1-c1ccc(P(=O)(O)O)o1 [Compound 3.1, reference compound]; 7.04
CC(C)Cc1sc(N)nc1-c1ccc(P(=O)(O)O)o1 [Compound 3.6, reference compound]; 6.85

* * *

Biological target: human NAT2 (Homo sapiens)
MEASUREMENT_KIND: susceptibility to N-acetylation by NAT2, in words

CC(C)OC(=O)C(C)(C)NP(=O)(NC(C)(C)C(=O)OC(C)C)c1ccc(-c2nc(N)sc2C(=O)C(C)(C)C)o1; insusceptible
CCOC(=O)[C@H](C)NP(=O)(N[C@@H](C)C(=O)OCC)c1ccc(-c2nc(N)sc2C(=O)C(C)(C)C)o1; insusceptible
CCOC(=O)C(C)(C)NP(=O)(NC(C)(C)C(=O)OCC)c1ccc(-c2nc(N)sc2C(=O)C(C)(C)C)o1; insusceptible

* * *

# maps each entry to its melting point

CCOC(=O)C(C)(C)NP(=O)(NC(C)(C)C(=O)OCC)c1ccc(-c2nc(N)sc2C(=O)C(C)(CC)CC)o1; 157 to 160 °C
CCOC(=O)CNP(=O)(NCC(=O)OCC)c1ccc(-c2nc(N)sc2C(=O)C(C)(C)C)o1; 86 to 88 °C
CC(=O)c1sc(N)nc1-c1ccc(P(=O)(O)O)o1; > 207 °C
CCOC(=O)C(C)(C)NP(=O)(NC(C)(C)C(=O)OCC)c1ccc(-c2nc(N)sc2C(=O)C(C)(C)C)o1; 149 to 152 °C
Nc1nc(-c2ccc(P(=O)(O)O)o2)c(C(=O)c2ccccc2)s1; > 210 °C
CCC(C)(CC)C(=O)c1sc(N)nc1-c1ccc(P(=O)(NC(C)(C)C(=O)OC(C)C)NC(C)(C)C(=O)OC(C)C)o1; 160 to 164 °C

Turning to the following molecule.
Data request: I would be grateful if you could share the reported melting point for "CCC(C)(CC)C(=O)c1sc(N)nc1-c1ccc(P(=O)(O)O)o1" .
Data returned: 202 to 205 °C

* * *

Biological target: human NAT2 (Homo sapiens, UniProt P11245)
Sequence (P11245 whole entry): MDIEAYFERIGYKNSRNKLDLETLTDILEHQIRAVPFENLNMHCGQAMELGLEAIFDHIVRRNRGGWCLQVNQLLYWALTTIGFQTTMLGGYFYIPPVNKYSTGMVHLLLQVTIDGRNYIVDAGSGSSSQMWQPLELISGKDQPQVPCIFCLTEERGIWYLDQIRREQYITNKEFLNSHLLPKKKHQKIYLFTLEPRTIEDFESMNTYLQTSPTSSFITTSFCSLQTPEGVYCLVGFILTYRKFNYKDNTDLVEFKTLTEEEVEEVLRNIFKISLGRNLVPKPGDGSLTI
Conditions: human, 120 min, 100 μM, pH 7.4
MEASUREMENT_KIND: % Conversion NAT2 (%)

[a] CCOC(=O)[C@H](C)NP(=O)(N[C@@H](C)C(=O)OCC)c1ccc(-c2nc(N)sc2CC(C)C)o1 [Compound 4.6, reference compound]
[b] CCOC(=O)C(C)(C)NP(=O)(NC(C)(C)C(=O)OCC)c1ccc(-c2nc(N)sc2C(=O)C(C)(C)C)o1
Data request: I'd appreciate it if you could identify which of a and b has the greater % Conversion NAT2. Provide the label of your selected option as the answer.
Data returned: a
(a: 62.4%, b: 0%)

* * *

Target: human NAT1 (Homo sapiens, UniProt P18440)
Construct: purchased BD Gentest (Bedford, Mass.); host or cells: insect cells
Assay: N-acetylation by recombinant human NAT1
Format: in vitro ADME
Settings: compound 100 μM, 37° C., 120 min, N-acyl product by HPLC
MEASUREMENT_KIND: % Conversion NAT1 (%)

Some compounds with known % Conversion NAT1 results, for comparison:
CC(C)(C)Cc1sc(N)nc1-c1ccc(P(=O)(O)O)o1 [Compound 3.1, reference compound]; 22.4
CCOC(=O)C(C)(C)NP(=O)(NC(C)(C)C(=O)OCC)c1ccc(-c2nc(N)sc2C(=O)C(C)(C)C)o1; 0
CCOC(=O)[C@H](C)NP(=O)(N[C@@H](C)C(=O)OCC)c1ccc(-c2nc(N)sc2CC(C)C)o1 [Compound 4.6, reference compound]; 6.3
CCC(C)(CC)C(=O)c1sc(N)nc1-c1ccc(P(=O)(O)O)o1; 0

[a] CC(C)(C)C(=O)c1sc(N)nc1-c1ccc(P(=O)(O)O)o1
[b] CC(C)Cc1sc(N)nc1-c1ccc(P(=O)(O)O)o1 [Compound 3.6, reference compound]
[c] CCC(C)Cc1sc(N)nc1-c1ccc(P(=O)(O)O)o1 (stereo not shown) [Compound 3.5, reference compound]
Data request: Please produce an ascending ranking of these compounds based on % Conversion NAT1. # the answer lists labels in the order requested
Data returned: a, c, b
(a: 0%, c: 14.2%, b: 51%)

All values here come from patent US20080070868A1.
